- SYSTEM_TESTED: JAK2 (recombinant purified GST-tagged catalytic domain) (Homo sapiens (Human), UniProt O60674)
- Sequence (O60674 849-1124): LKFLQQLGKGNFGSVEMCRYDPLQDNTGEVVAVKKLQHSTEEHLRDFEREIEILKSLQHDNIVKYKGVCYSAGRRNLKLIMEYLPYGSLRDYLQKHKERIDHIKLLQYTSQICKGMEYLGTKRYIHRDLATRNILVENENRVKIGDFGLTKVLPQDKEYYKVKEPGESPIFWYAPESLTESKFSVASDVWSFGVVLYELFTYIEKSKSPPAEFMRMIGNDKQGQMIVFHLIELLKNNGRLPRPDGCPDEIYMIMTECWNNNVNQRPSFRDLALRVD
- ASSAY_TEXT: Jak Biochemical HTRF Assay (JAK2)
- EXPERIMENTAL_CONTEXT: [ATP] 8.5 μM
- Experimental: Jak Biochemical HTRF Assay Protocol The ability of compounds to inhibit the activity of JAK1, JAK2, JAK3, and Tyk2 was measured using a recombinant purified GST-tagged catalytic domain for each enzyme (Invitrogen JAK1 #M4290, JAK2 #M4290, JAK3 #M4290, Tyk2 #M4290) in an HTRF format biochemical assay. […] Plates were shaken and centrifuged and then incubated 60 minutes at room temperature and then read on a Perkin Elmer Envision (λex=337 nm, λem=665 and 615 nm, TRF delay time=20 μs). […]
Could you please mark Met for values of IC50 below 2 nM and Not met for values at or above it?

Strictly below 2 nM: is that where IC50 of COC(=O)N1CCC(CC#N)(n2nc(Nc3ccc4c(c3)CN(CC3CC3)S4(=O)=O)c3c(=O)[nH]ccc32)CC1 sits?
Met

Then this compound: CC(C)NC(C)(C)c1ccc(Nc2nn([C@]3(CC#N)CC[C@@H](C(=O)OC(C)(C)C)OC3)c3cc[nH]c(=O)c23)cc1
Met

Also need CC(O)(c1ccc(Nc2nn([C@@]3(CC#N)CCCC[C@H]3F)c3cc[nH]c(=O)c23)cc1)C(F)(F)F (single isomer, unassigned) [Example 5-86] , thanks.
Met

Likewise for CN(C(C)(C)C)S(=O)(=O)c1ccc(Nc2nn([C@]3(CC#N)CCCOC3)c3cc[nH]c(=O)c23)cc1 ?
Met

Same thing, different compound: N#CC[C@@]1(n2nc(Nc3ccc(C4(C(F)(F)F)CC4)cc3)c3c(=O)[nH]ccc32)CCCOC1
Not met

Item: CC(C)(C)OC(=O)N1CC[C@@](CC#N)(n2nc(Nc3ccc(S(C)(=O)=O)cc3)c3c(=O)[nH]ccc32)[C@H](F)C1 (single isomer, unassigned)
Not met

Ok, now COC(=O)[C@H]1CC[C@](CC#N)(n2nc(Nc3ccc(S(C)(=O)=O)cc3)c3c(=O)[nH]ccc32)CO1 (single isomer, unassigned)
Not met

Same question, N#CC[C@@]1(n2nc(Nc3ccc(S(=O)(=O)N4CCC4)cc3)c3c(=O)[nH]ccc32)CCCOC1 this time
Met

Moving on to CN(C)c1ccc2cc(Nc3nn([C@]4(CC#N)CCCOC4)c4cc[nH]c(=O)c34)ccc2n1
Not met

N#CC[C@]1(n2nc(Nc3ccc(OC(F)(F)F)cc3)c3c(=O)[nH]ccc32)CC[C@@H](NC2CCCCC2)CC1 ?
Not met

Query Cc1cc(Nc2nn([C@@]3(CC#N)CCCC[C@H]3F)c3cc[nH]c(=O)c23)ccc1C(=O)N1CCOCC1 next
Met

Check CC(C)(C)OC(=O)[C@@H]1CC[C@](CC#N)(n2nc(Nc3ccc(S(C)(=O)=O)cc3)c3c(=O)[nH]ccc32)CO1 (single isomer, unassigned) [Example 5-37] too.
Not met

###

- SYSTEM_TESTED: JAK1 (recombinant purified GST-tagged catalytic domain) (Homo sapiens (Human))
- Sequence (P23458 875-1153): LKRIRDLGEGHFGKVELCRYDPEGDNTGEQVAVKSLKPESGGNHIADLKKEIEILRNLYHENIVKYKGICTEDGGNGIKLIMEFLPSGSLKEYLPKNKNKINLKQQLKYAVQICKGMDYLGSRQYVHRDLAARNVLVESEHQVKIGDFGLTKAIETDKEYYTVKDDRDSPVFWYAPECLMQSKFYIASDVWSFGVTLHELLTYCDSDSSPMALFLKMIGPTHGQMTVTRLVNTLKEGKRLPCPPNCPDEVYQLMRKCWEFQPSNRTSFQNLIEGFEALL
- ASSAY_TEXT: Jak Biochemical HTRF Assay (JAK1)
- EXPERIMENTAL_CONTEXT: [ATP] 31.8 μM
For each of the compounds below, state its IC50.
// note: answer is a bare numeric in nM

Could you share which IC50 value was measured for CN(C)S(=O)(=O)c1ccc(Nc2nn(C3(CC#N)CCN(C(=O)C4CC(F)(F)C4)CC3)c3cc[nH]c(=O)c23)cc1 ?
0.09

Here is the next compound: N#CC[C@]1(n2nc(Nc3ccc(Cl)c(F)c3)c3c(=O)[nH]ccc32)CC[C@H](NC2CCCCC2)CC1
0.12

Try this compound next: N#CCC1(n2nc(Nc3ccc(C(N)C(F)(F)F)cc3)c3c(=O)[nH]ccc32)CCCC1 (single isomer, unassigned) [Example 5-88]
0.46

Now give it for CC(C)(C)N[C@H](c1ccc(Nc2nn([C@]3(CC#N)CCOC[C@@H]3F)c3cc[nH]c(=O)c23)cc1)C(F)(F)F (single isomer, unassigned) too.
0.11

Queued: CC(c1ccc(Nc2nn([C@]3(CC#N)CCCOC3)c3cc[nH]c(=O)c23)cc1)N1CCCC1 (single isomer, unassigned) [Example 5-200]
1.15

Would you mind doing CN(C)S(=O)(=O)c1ccc(Nc2nn(C3(CC#N)CCN(C(=O)C45CC6C[C@H](C4)C[C@@H](C6)C5)CC3)c3cc[nH]c(=O)c23)cc1 as well?
3.96

Next: N#CC[C@@]1(n2nc(Nc3ccc([C@@]4(C(F)(F)F)CCCCN4)cc3)c3c(=O)[nH]ccc32)CCOC[C@@H]1F (single isomer, unassigned)
0.05

Proceed to CC(C)(C)OC(=O)c1ccc(Nc2nn(C3(CC#N)CCCC3)c3cc[nH]c(=O)c23)cc1
4.76

Next up: COC1CN([C@H]2CC[C@](CC#N)(n3nc(Nc4ccc(Cl)c(F)c4)c4c(=O)[nH]ccc43)CC2)C1
0.09

Now consider CNC(=O)c1ccc(Nc2nn(C3(CC#N)CCCC3)c3cc[nH]c(=O)c23)cc1 and answer again.
0.22

For COC(=O)[C@H]1CC[C@](CC#N)(n2nc(Nc3ccc(S(C)(=O)=O)cc3)c3c(=O)[nH]ccc32)CO1 (single isomer, unassigned) then?
4.74

Please answer likewise for CC(C)(C)OC(=O)[C@@H]1CC[C@@](CC#N)(n2nc(Nc3ccc4nc(C#N)ccc4c3)c3c(=O)[nH]ccc32)CO1
0.14

Now the compound CC(C)(C)OC(=O)[C@@H]1CC[C@@](CC#N)(n2nc(Nc3ccc4c(c3)CN(C3CCCC3)C4=O)c3c(=O)[nH]ccc32)CO1
0.1

Now this one: CC(C)(C)OC(=O)[C@@H]1CC[C@@](CC#N)(n2nc(Nc3ccc4nc(N5CC6CCC(C5)O6)ccc4c3)c3c(=O)[nH]ccc32)CO1
0.34

How about this compound: CC(O)(c1ccc(Nc2nn([C@@]3(CC#N)CCCC[C@H]3F)c3cc[nH]c(=O)c23)cc1)C(F)(F)F (single isomer, unassigned) [Example 5-86]
0.07

// query: Cc1cc(Nc2nn([C@]3(CC#N)CC[C@@H](C(=O)OC(C)(C)C)OC3)c3cc[nH]c(=O)c23)ccc1C(=O)N1CCOCC1C (single isomer, unassigned) [Example 20-9]
0.14

Try this compound too: CC(C)(C)OC(=O)CN1Cc2cc(Nc3nn([C@]4(CC#N)CCCOC4)c4cc[nH]c(=O)c34)ccc2S1(=O)=O
0.08

Check CN(C)S(=O)(=O)c1ccc(Nc2nn([C@@]3(CC#N)CCCOC3)c3cc[nH]c(=O)c23)cc1 too.
13.5

Now this one: CN1Cc2cc(Nc3nn([C@]4(CC#N)CC[C@@H](N5CC(F)C5)CC4)c4cc[nH]c(=O)c34)ccc2S1(=O)=O
0.04

Next compound: CS(=O)(=O)c1ccc(Nc2nn(C3(CC#N)CCN(c4ccc(I)cn4)CC3)c3cc[nH]c(=O)c23)cc1
0.17

Similarly, Cc1cc(Nc2nn([C@@]3(CC#N)CCOC[C@H]3F)c3cc[nH]c(=O)c23)ccc1C(=O)N1CCOCC1 (single isomer, unassigned) ?
2.08

Note, next up: Cc1cc(Nc2nn([C@@]3(CC#N)CCOC[C@H]3F)c3cc[nH]c(=O)c23)ccc1C(=O)N1CCSCC1 (single isomer, unassigned)
2.26

Do the same for CC1(C)C(=O)Nc2cc(Nc3nn([C@]4(CC#N)CCCOC4)c4cc[nH]c(=O)c34)ccc21 please
0.09

Also check CC(C)N1Cc2cc(Nc3nn(C4(CC#N)CCCC4)c4cc[nH]c(=O)c34)ccc2C1=O
2.07

What do you have for CC(C)(C)OC(=O)[C@@H]1CC[C@@](CC#N)(n2nc(Nc3ccc(S(=O)(=O)C(C)(C)C)cc3)c3c(=O)[nH]ccc32)CO1 ?
0.14
